B1: F1*; the commonest letter at each place (parent)
chain: GAGACCGCAACTGAAAAGTTGTTATCACTTGTCGTAAGACACTTTGGATGGGTTGAAGTTCTGCACGTAGAAGCAAAAGGC

Variants of: B1
Test: fraction ligated after 30 min (ligated reads / total reads); higher = more ligase activity
Conditions: with F1*sub RNA substrate (template-directed ligation), 42 °C
Quick rule: fraction ligated of at least 0.8 means Met, below that means Not met.

Example results:
# mutationList, category
rows = [
    ("C33A G46A", "Met"),
    ("T29C G38C", "Met"),
    ("G55C A56T A57C", "Not met"),
    ("A41G A56T", "Not met"),
    ("C33G A37G", "Met"),
]

Does the variant G31A C33T have recorded fraction ligated that is 0.8 or more?
Met
